readout.type: IC50 (nM)
Express it in nM; write the number only.

Record Cn1c([C@@H](Cc2ccccc2)NCc2ccccc2)nc2cc(C(=O)NO)ccc21 / Histone deacetylase 5 (Homo sapiens), IC50 recorded as 2120

====

# experimental.protocol: AUC (0 to t) in mouse at 10 mg/kg, po
# Format: ADME, organism-based
# condition.details: in vivo
readout.type: AUC(0-t) (ng·h/mL)
Express it in ng·h/mL; write the number only.

Query Cn1c([C@@H](Cc2ccccc2)NCc2ccccc2)nc2cc(C(=O)NO)ccc21 yields AUC(0-t) of 52.1

====

# System: MDA-MB-468
# experimental.protocol: cells
# condition.details: Homo sapiens, MDA-MB-468, 24 h
pIC50: −log10 of the molar value.
Answer FALSE if pIC50 is under 5, and TRUE if it is 5 or more.

query: Exam item: decide whether the reported pIC50 for Cn1c(CNc2cccc3ccccc23)nc2cc(C(=O)NO)ccc21 is at least 5.
result: TRUE

query: Exam item: decide whether the reported pIC50 for C[C@@H](NCc1ccccc1)c1nc2cc(C(=O)NO)ccc2n1C is at least 5.
result: TRUE

query: Exam item: decide whether the reported pIC50 for Cn1c([C@H](Cc2ccccc2)NCc2ccccc2)nc2cc(C(=O)NO)ccc21 is at least 5.
result: FALSE

query: Exam item: decide whether the reported pIC50 for CCCN(Cc1nc2cc(C(=O)NO)ccc2n1C)c1ccccc1 is at least 5.
result: FALSE

query: Exam item: decide whether the reported pIC50 for Cn1c(CNc2cccc(F)c2)nc2cc(C(=O)NO)ccc21 is at least 5.
result: TRUE

====

# Tested on: MDA-MB-468
# experimental.protocol: cells
# condition.details: Homo sapiens, MDA-MB-468, 24 h
readout.type: IC50 (µM)
Express it in µM; write the number only.

Query CN(Cc1nc2cc(C(=O)NO)ccc2n1C)c1ccccc1 yields IC50 of 4.93

Query CCCCN(Cc1nc2cc(C(=O)NO)ccc2n1C)c1ccccc1 yields IC50 of 8.17

Query Cc1ccccc1NCc1nc2cc(C(=O)NO)ccc2n1C yields IC50 of 5.53

====

Exercise: state measured Cmax for each of the molecules provided.
# experimental.protocol: Cmax in mouse at 10 mg/kg, po
# Format: ADME, organism-based
# condition.details: in vivo
Express it in ng/mL; write the number only.

Query O=C(CCCCCCNC(=O)c1cnc(N(c2ccccc2)c2ccccc2)nc1)NO [RICOLINOSTAT] yields Cmax of 333

Query Cn1c([C@@H](Cc2ccccc2)NCc2ccccc2)nc2cc(C(=O)NO)ccc21 yields Cmax of 177

====

Exercise: state measured log10(IC50) for each of the compounds provided.
# System: HCT-116
# experimental.protocol: Cytotoxicity against human HCT-116 cells assessed as inhibition of cell viability incubated for 24 hrs by CCK8 assay
# Assay type: functional, cell-based
# condition.details: HCT-116, 24 h
Note the log scale: values are log10 of IC50 expressed in µM.

Query Cn1c([C@H](Cc2ccccc2)NCc2ccccc2)nc2cc(C(=O)NO)ccc21 yields log10(IC50) of 0.74

Query C[C@@H](NCc1ccccc1)c1nc2cc(C(=O)NO)ccc2n1C yields log10(IC50) of -0.29

Query CCN(Cc1nc2cc(C(=O)NO)ccc2n1C)c1ccccc1 yields log10(IC50) of -0.30

Query Cn1c(CNc2cccc3ccccc23)nc2cc(C(=O)NO)ccc21 yields log10(IC50) of 0.97

Query Cn1c(CNc2cccc(F)c2)nc2cc(C(=O)NO)ccc21 yields log10(IC50) of 0.16

Query CCCN(Cc1nc2cc(C(=O)NO)ccc2n1C)c1ccccc1 yields log10(IC50) of 0.31

====

# Test system: HCT-116
# experimental.protocol: Cytotoxicity against human HCT-116 cells assessed as inhibition of cell viability incubated for 24 hrs by CCK8 assay
# Format: functional, cell-based
# condition.details: HCT-116, 24 h
Field 'label' (enum: fulfilled / not fulfilled). Set to fulfilled when IC50 is strictly under 4 µM; else not fulfilled.

query: State whether 4 µM exceeds IC50 recorded for Cc1cccc(NCc2nc3cc(C(=O)NO)ccc3n2C)c1 .
result: not fulfilled

query: State whether 4 µM exceeds IC50 recorded for Cn1c(CNCc2ccccc2)nc2cc(C(=O)NO)ccc21 .
result: fulfilled

query: State whether 4 µM exceeds IC50 recorded for CCCCN(Cc1nc2cc(C(=O)NO)ccc2n1C)c1cccc(F)c1 .
result: fulfilled

query: State whether 4 µM exceeds IC50 recorded for CCCCN(Cc1nc2cc(C(=O)NO)ccc2n1C)c1ccccc1 .
result: fulfilled

query: State whether 4 µM exceeds IC50 recorded for Cc1ccccc1NCc1nc2cc(C(=O)NO)ccc2n1C .
result: not fulfilled

query: State whether 4 µM exceeds IC50 recorded for C[C@H](NCc1ccccc1)c1nc2cc(C(=O)NO)ccc2n1C .
result: not fulfilled

query: State whether 4 µM exceeds IC50 recorded for Cn1c(CNc2ccccc2)nc2cc(C(=O)NO)ccc21 .
result: not fulfilled

query: State whether 4 µM exceeds IC50 recorded for Cn1c(CNc2ccccc2F)nc2cc(C(=O)NO)ccc21 .
result: not fulfilled

query: State whether 4 µM exceeds IC50 recorded for Cn1c(COc2ccccc2)nc2cc(C(=O)NO)ccc21 .
result: fulfilled

query: State whether 4 µM exceeds IC50 recorded for CN(Cc1nc2cc(C(=O)NO)ccc2n1C)c1ccccc1 .
result: not fulfilled

query: State whether 4 µM exceeds IC50 recorded for Cn1c([C@@H](Cc2ccccc2)NCc2ccccc2)nc2cc(C(=O)NO)ccc21 .
result: not fulfilled

====

# System: RPMI-8226
# experimental.protocol: cells
# condition.details: Homo sapiens, RPMI-8226, 24 h
readout.type: IC50 (nM)
Express it in nM; write the number only.

Record CCN(Cc1nc2cc(C(=O)NO)ccc2n1C)c1ccccc1 / RPMI-8226, IC50 recorded as 1380

Record Cn1c(CNc2ccccc2F)nc2cc(C(=O)NO)ccc21 / RPMI-8226, IC50 recorded as 2470

Record Cn1c([C@@H](Cc2ccccc2)NCc2ccccc2)nc2cc(C(=O)NO)ccc21 / RPMI-8226, IC50 recorded as 528

Record CN(Cc1nc2cc(C(=O)NO)ccc2n1C)c1ccccc1 / RPMI-8226, IC50 recorded as 661

Record Cn1c(CNc2cccc3ccccc23)nc2cc(C(=O)NO)ccc21 / RPMI-8226, IC50 recorded as 320

Record Cn1c(CNc2ccccc2)nc2cc(C(=O)NO)ccc21 / RPMI-8226, IC50 recorded as 2060

Record Cc1ccccc1NCc1nc2cc(C(=O)NO)ccc2n1C / RPMI-8226, IC50 recorded as 2190

Record Cn1c(COc2ccccc2)nc2cc(C(=O)NO)ccc21 / RPMI-8226, IC50 recorded as 2520

Record CCCCN(Cc1nc2cc(C(=O)NO)ccc2n1C)c1ccccc1 / RPMI-8226, IC50 recorded as 934

Record Cn1c([C@H](Cc2ccccc2)NCc2ccccc2)nc2cc(C(=O)NO)ccc21 / RPMI-8226, IC50 recorded as 2040

Record CCCN(Cc1nc2cc(C(=O)NO)ccc2n1C)c1ccccc1 / RPMI-8226, IC50 recorded as 2390

Record Cn1c(CNc2cccc(F)c2)nc2cc(C(=O)NO)ccc21 / RPMI-8226, IC50 recorded as 1870

Record CCCCN(Cc1nc2cc(C(=O)NO)ccc2n1C)c1cccc(F)c1 / RPMI-8226, IC50 recorded as 1330

Record C[C@@H](NCc1ccccc1)c1nc2cc(C(=O)NO)ccc2n1C / RPMI-8226, IC50 recorded as 709

Record Cn1c(CNCc2ccccc2)nc2cc(C(=O)NO)ccc21 / RPMI-8226, IC50 recorded as 349

Record Cc1cccc(NCc2nc3cc(C(=O)NO)ccc3n2C)c1 / RPMI-8226, IC50 recorded as 1620

Record C[C@H](NCc1ccccc1)c1nc2cc(C(=O)NO)ccc2n1C / RPMI-8226, IC50 recorded as 1050

====

readout.type: IC50 (nM)
Express it in nM; write the number only.

Record C[C@@H](NCc1ccccc1)c1nc2cc(C(=O)NO)ccc2n1C / Histone deacetylase 1 (Homo sapiens), IC50 recorded as 841

Record CCCCN(Cc1nc2cc(C(=O)NO)ccc2n1C)c1ccccc1 / Histone deacetylase 1 (Homo sapiens), IC50 recorded as 634

====

# Test system: MDA-MB-468
# experimental.protocol: cells
# condition.details: Homo sapiens, MDA-MB-468, 24 h
readout.type: IC50 (µM)
Express it in µM; write the number only.

Query C[C@H](NCc1ccccc1)c1nc2cc(C(=O)NO)ccc2n1C yields IC50 of 9.16

Query CCCCN(Cc1nc2cc(C(=O)NO)ccc2n1C)c1cccc(F)c1 yields IC50 of 10.5

Query Cn1c(CNCc2ccccc2)nc2cc(C(=O)NO)ccc21 yields IC50 of 10.8

Query Cn1c(CNc2ccccc2)nc2cc(C(=O)NO)ccc21 yields IC50 of 9.6

Query Cn1c(CNc2ccccc2F)nc2cc(C(=O)NO)ccc21 yields IC50 of 8.58

Query Cn1c(COc2ccccc2)nc2cc(C(=O)NO)ccc21 yields IC50 of 7.96
